Reported growth values for a set of compounds
Tested on: TK-10 renal
Method Summary: NCI-60 one-dose screen, 48 h (100 = growth as untreated, 0 = no growth, -100 = all killed)
Test Conditions: 10 µM unless noted
The panel holds about 83,000 compounds, 20% with a hit somewhere; the sample as a whole holds those more often.
Write the number in % without appending the unit.

# Compound, Result Unit, growth
rows = [
    ("COC(=O)[C@]12CC[C@@H](C)[C@H](C)[C@@H]1C1=CC[C@@H]3[C@@]4(C)C(C=O)=C[C@@](C)(COC(C)=O)C4=CC[C@@]3(C)[C@]1(C)CC2", "%", -8.72),
    ("Cn1cc2c(c1)-c1nc(Nc3ccccc3)ncc1CC2", "%", 61.9),
    ("CC(C)(C)n1cc(-c2ccnc(NCCCNS(=O)(=O)c3ccccc3)c2)c(-c2ccccc2)n1", "%", 94.1),
    ("Cc1cc(O)c(C2=NN(c3ccc(S(N)(=O)=O)cc3)C(c3ccccc3Cl)C2)cc1Cl (centres undefined)", "%", 60.6),
    ("Cc1c(C(=O)N[C@@H](Cc2ccccc2)C(=O)C(=O)NCCc2ccccc2)[nH]c2ccccc2c1=O", "%", 118),
    ("O=C1Nc2ccc(F)cc2C12Nc1cc(Cl)ccc1S2 (centres undefined)", "%", 188),
]

Query block: Give the measured growth for COc1ccc2c(c1)CCCN2c1c2ccccc2nc2ccccc12
Result block: 48.2

Query block: Answer with the recorded growth of S=C(Cc1ccc2c(c1)CCCC2)N1CCOCC1 only.
Result block: 106

Query block: Annotate the compound O=C1CCc2c(sc3[nH]c(=S)n(-c4ccc(OC(F)(F)F)cc4)c(=O)c23)C1 with its measured growth.
Result block: 104
